Target: hROMK (hKir1.1) (Homo sapiens, UniProt P48048)
Sequence (P48048 whole entry): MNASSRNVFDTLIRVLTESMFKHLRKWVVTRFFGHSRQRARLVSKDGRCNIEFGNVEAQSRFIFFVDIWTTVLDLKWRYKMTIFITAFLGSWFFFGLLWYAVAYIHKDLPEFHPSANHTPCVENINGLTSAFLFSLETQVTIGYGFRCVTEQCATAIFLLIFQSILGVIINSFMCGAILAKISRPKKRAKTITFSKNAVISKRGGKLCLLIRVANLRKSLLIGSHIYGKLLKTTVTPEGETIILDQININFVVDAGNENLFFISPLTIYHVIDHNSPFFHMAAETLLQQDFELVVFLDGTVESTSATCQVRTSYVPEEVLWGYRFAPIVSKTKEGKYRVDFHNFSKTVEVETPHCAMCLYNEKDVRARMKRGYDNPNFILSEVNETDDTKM
Assay: Thallium Flux Assay (ROMK channel functional thallium flux, FLIPR-Tetra)
Conditions: HEK293 cells stably expressing hROMK (hKir1.1); 30 min compound incubation
The reader will find reported pIC50 values listed item by item below.
Schema: pIC50 number; meaning minus log10 of the concentration expressed in molar units.

Field: example entries. Status: answers known.
[[record]]
molecule = "CC1=C(N2CCC3(CC4COCC(C3)N4CCc3ccc(-n4cnnn4)nn3)C2=O)COC1=O (stereo not drawn)"
system_under_test = "hROMK (hKir1.1) (Homo sapiens, UniProt P48048)"
recorded_number = 6.49

[[record]]
molecule = "O=C1C=C(N2CCC3(CC4CCC(C3)N4C[C@H](O)c3ccc(-n4cnnn4)nn3)C2=O)CO1 (stereo partly drawn)"
system_under_test = "hROMK (hKir1.1) (Homo sapiens, UniProt P48048)"
recorded_number = 8.00

[[record]]
molecule = "CC1=C(N2C=CC3(CCN(C[C@@H](O)c4ccc(-n5cnnn5)nc4)CC3)C2=O)COC1=O"
system_under_test = "hROMK (hKir1.1) (Homo sapiens, UniProt P48048)"
recorded_number = 7.70

[[record]]
molecule = "CC1=C(N2CCC3(CCN([C@@H](C)Cc4ccc(-n5cnnn5)nn4)CC3)C2=O)COC1=O (single isomer, unassigned)"
system_under_test = "hROMK (hKir1.1) (Homo sapiens, UniProt P48048)"
recorded_number = 8.00

[[record]]
molecule = "COC1CN(C[C@@H](O)c2ccc(-n3cnnn3)nc2)CCC12CCN(C1=C(C)C(=O)OC1)C2=O (single isomer, unassigned) [Example 177]"
system_under_test = "hROMK (hKir1.1) (Homo sapiens, UniProt P48048)"
recorded_number = 7.15


Fill in: pIC50 of CC1=C(N2C(=O)C3(CCN(C[C@H](O)c4ccc(-n5cnnn5)nc4C)CC3)CC2C)COC1=O (mixture of isomers) [Example 57] is ___
7.70

Check CC1=C(N2CCC3(CCN(CCc4ccc(-n5cnnn5)nn4)CC3F)C2=O)COC1=O (single isomer, unassigned) [Example 266] too.
8.00

====

Molecular target: hROMK (hKir1.1) (Homo sapiens)
Experiment: Thallium Flux Assay (ROMK channel functional thallium flux, FLIPR-Tetra)
Conditions: HEK293 cells stably expressing hROMK (hKir1.1); 30 min compound incubation
Result Type: pIC50
Schema: pIC50 number; meaning minus log10 of the concentration expressed in molar units.

Field: example entries. Status: answers known.
[[record]]
compound = "CC1=C(N2CCC3(CCN(C[C@H](O)c4cnc(-n5cnnn5)nc4)CC3)C2=O)COC1=O"
system_under_test = "hROMK (hKir1.1) (Homo sapiens)"
result_type = "pIC50"
recorded_number = 7.52

[[record]]
compound = "CC1=C(N2CCC3(CCN(C[C@@H](O)c4nnc(-n5cnnn5)cc4C)CC3F)C2=O)COC1=O (single isomer, unassigned) [Example 186]"
system_under_test = "hROMK (hKir1.1) (Homo sapiens)"
result_type = "pIC50"
recorded_number = 7.15

[[record]]
compound = "CC1=C(N2CCC3(CCN(C[C@@H](O)c4ccnc(-n5cnnn5)c4)CC3)C2=O)COC1=O"
system_under_test = "hROMK (hKir1.1) (Homo sapiens)"
result_type = "pIC50"
recorded_number = 6.80

[[record]]
compound = "Cc1nc([C@@H](O)CN2CCC3(CC2)CCN(C2=CC(=O)OC2)C3=O)ccc1-n1cnnn1"
system_under_test = "hROMK (hKir1.1) (Homo sapiens)"
result_type = "pIC50"
recorded_number = 7.40

[[record]]
compound = "CC1=C(N2CCC3(CC4CCC(C3)N4C[C@@H](O)c3cnc(-n4cnnn4)cn3)C2=O)COC1=O (stereo partly shown)"
system_under_test = "hROMK (hKir1.1) (Homo sapiens)"
result_type = "pIC50"
recorded_number = 7.05


Fill in: pIC50 of O=C1C=C(N2CCC3(CCN(C[C@H](O)c4ccc(-n5cnnn5)nc4)CC3)C2=O)CO1 is ___
8.00

Check CC1=C(N2C=CC3(CCN(C[C@H](O)c4ccc(-n5cnnn5)nc4)CC3)C2=O)COC1=O too.
7.52

These measurements were taken from patent US9765074B2.
